target: Cytochrome P450 1A2 (Homo sapiens) (UniProt P05177); assay: Cytochrome panel assay with activity outcomes; settings: recombinant CYP, pro-luciferin dealkylation, luminescence, p450-cyp1a2; series mostly up to 57.1 µM
Sequence (P05177 whole entry, looked up): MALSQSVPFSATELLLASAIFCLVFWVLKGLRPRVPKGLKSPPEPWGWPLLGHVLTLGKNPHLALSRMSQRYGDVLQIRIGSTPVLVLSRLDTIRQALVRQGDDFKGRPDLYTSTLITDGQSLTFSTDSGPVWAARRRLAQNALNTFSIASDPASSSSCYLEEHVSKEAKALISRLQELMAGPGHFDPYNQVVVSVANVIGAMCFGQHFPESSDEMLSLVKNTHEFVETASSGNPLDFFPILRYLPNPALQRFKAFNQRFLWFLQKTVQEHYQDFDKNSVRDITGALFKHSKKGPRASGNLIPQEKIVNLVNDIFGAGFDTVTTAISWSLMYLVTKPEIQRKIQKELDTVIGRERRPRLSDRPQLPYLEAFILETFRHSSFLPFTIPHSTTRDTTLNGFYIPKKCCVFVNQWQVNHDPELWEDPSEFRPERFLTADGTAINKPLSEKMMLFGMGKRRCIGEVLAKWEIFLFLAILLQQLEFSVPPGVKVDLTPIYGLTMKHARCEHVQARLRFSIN
Hit rate of the full screen: of about 16,000 compounds, about 5,700 (36%) were called active. Another 24% or so got no clear call; they are omitted. Calls follow the shape of the dose curve; as a rule, active = well fitted curve in the direction sought with a large enough effect; inconclusive = small, poorly fitted or top-dose-only effect, or effect the other way; inactive = no such curve, though single readings can be large or run the other way. The list shows a part of the results.
# output must be one of active, inactive

See these solved cases before continuing.
>  <compound>
CC(=O)NCCC(=O)Nc1sc2c(c1-c1nc3ccccc3[nH]1)CCCC2

>  <assigned.label>
active

$$$$
>  <compound>
COc1ccc([N+](=O)[O-])cc1COc1ccc2c(-c3ccccc3)cc(=O)oc2c1

>  <assigned.label>
inactive

$$$$
>  <compound>
Clc1cccc(Oc2cnc3ccccc3n2)c1

>  <assigned.label>
active

$$$$
>  <compound>
CC1CCN(CC[C@@H]2CCCN2S(=O)(=O)c2cccc(O)c2)CC1

>  <assigned.label>
inactive

$$$$
>  <compound>
NC(N)=N/N=C(\c1ccc(Cl)cc1)C1CC1

>  <assigned.label>
active

$$$$
>  <compound>
CC(=O)Nc1ccc(S(=O)(=O)NC(CC(=O)NCCC2=CCCCC2)C(C)C)cc1 (centres undefined)

>  <assigned.label>
inactive

$$$$
>  <compound>
O=C(CSCc1ccccc1Cl)NN1C(=O)c2ccccc2C1=O

>  <assigned.label>
active

$$$$
>  <compound>
Cn1c(=O)c(-c2cc(F)cc(F)c2)nc2cnc(Oc3ccccc3)nc21

>  <assigned.label>
active

$$$$
>  <compound>
Cc1ccc(S(=O)(=O)N[C@H](C(=O)N2CCC(C(=O)NCC(=O)O)CC2)C(C)C)cc1

>  <assigned.label>
inactive

$$$$
>  <compound>
Oc1ccccc1-c1nnc(-c2ccc(C(F)(F)F)cc2)o1

>  <assigned.label>
active

$$$$

For the next question, use this compound.
I would be grateful if you could indicate the recorded call for O=C(CN1CCN(c2ncccn2)CC1)NCCC1=CCCCC1 .
active

====

target: Cytochrome P450 1A2 (Homo sapiens) (UniProt P05177); assay: Cytochrome panel assay with activity outcomes; conditions: recombinant CYP, pro-luciferin dealkylation, luminescence, p450-cyp1a2; series mostly up to 57.1 µM; as to activity, negative = inhibition: % is scaled to controls: 0 for no effect and ±100 for the full control effect
Hit rate of the full screen: of about 16,000 compounds, about 5,700 (36%) were called active. Inconclusive results (about 24%) are left out. The list shows a part of the results.
endpoint: activity, negative = inhibition

>  <smi>
COC(=O)[C@@H]1CC[C@H](C)[C@@H](c2ccc(C)cc2)N1C(=O)c1ccc(/C=N\O[C@@H]2O[C@H](COC(C)=O)[C@H](OC(C)=O)[C@H](OC(C)=O)[C@H]2OC(C)=O)cc1

>  <activity, negative = inhibition>
-1.33% [at 11.4 µM] (inactive)

$$$$
>  <smi>
COC(=O)C/C=C\[C@H](C)[C@@H](OC)c1ccccc1Br

>  <activity, negative = inhibition>
-0.474% [at 11.4 µM] (inactive)

$$$$
>  <smi>
CC(=O)OC[C@@H]1O[C@H](CCO/N=C\[C@@H](C)[C@H](OCc2ccccc2)C(C)C)C=C[C@@H]1OC(C)=O

>  <activity, negative = inhibition>
9.09% [at 11.4 µM] (inactive)

$$$$
>  <smi>
O=C(O)CSc1ncccc1[N+](=O)[O-]

>  <activity, negative = inhibition>
2.52% [at 11.4 µM] (inactive)

$$$$
>  <smi>
COC(=O)C/C=C\[C@@H](C)[C@@H](/C=N\O[C@@H](C)c1cn([C@H]2COC[C@H]2O)nn1)OC

>  <activity, negative = inhibition>
9.97% [at 11.4 µM] (inactive)

$$$$
>  <smi>
CN(C)CCSCCO

>  <activity, negative = inhibition>
-14.3% [at 2.29 µM] (inactive)

$$$$
>  <smi>
c1ccc2c(c1)nnn2CN1CCOCC1

>  <activity, negative = inhibition>
-8.08% [at 11.4 µM] (inactive)

$$$$
>  <smi>
Cc1ccc(S(=O)(=O)N[C@H]2COC(=O)C/C=C\[C@@H](C)[C@H](NS(=O)(=O)c3ccc(C)cc3)COC(=O)C/C=C\[C@H]2C)cc1

>  <activity, negative = inhibition>
-0.94% [at 11.4 µM] (inactive)

$$$$

Field request: activity, negative = inhibition | item: CC(C)(C)CC(C)(C)c1cc(O)c(O)c(CN2CCCCC2)c1
-0.989% [at 11.4 µM] (inactive)
